Experiment: Half life in plasma of RT112/luc1 cells implanted athymic nude mouse at 20 mg/kg, po by LC/MS/MS analysis
Format: ADME, organism-based
Set-up: dose 20 mg/kg, route oral
experimentalReadout: half-life (h)

CCN1CCN(c2ccc(Nc3cc(N(C)C(=O)Nc4c(Cl)c(OC)cc(OC)c4Cl)ncn3)cc2)CC1.O=P(O)(O)O [INFIGRATINIB PHOSPHATE]
4.3

----------
Test system: HT1197
Assay: Antiproliferative activity against human HT1197 cells after 72 hrs
Format: functional, cell-based
Settings: HT1197, 72 h
experimentalReadout: IC50 (nM)

CCN1CCN(c2ccc(Nc3cc(N(C)C(=O)Nc4c(Cl)c(OC)cc(OC)c4Cl)ncn3)cc2)CC1.O=P(O)(O)O [INFIGRATINIB PHOSPHATE]
1160

----------
Target: MAP kinase-interacting serine/threonine-protein kinase 1 (Homo sapiens)
Sequence (Q9BUB5 whole entry): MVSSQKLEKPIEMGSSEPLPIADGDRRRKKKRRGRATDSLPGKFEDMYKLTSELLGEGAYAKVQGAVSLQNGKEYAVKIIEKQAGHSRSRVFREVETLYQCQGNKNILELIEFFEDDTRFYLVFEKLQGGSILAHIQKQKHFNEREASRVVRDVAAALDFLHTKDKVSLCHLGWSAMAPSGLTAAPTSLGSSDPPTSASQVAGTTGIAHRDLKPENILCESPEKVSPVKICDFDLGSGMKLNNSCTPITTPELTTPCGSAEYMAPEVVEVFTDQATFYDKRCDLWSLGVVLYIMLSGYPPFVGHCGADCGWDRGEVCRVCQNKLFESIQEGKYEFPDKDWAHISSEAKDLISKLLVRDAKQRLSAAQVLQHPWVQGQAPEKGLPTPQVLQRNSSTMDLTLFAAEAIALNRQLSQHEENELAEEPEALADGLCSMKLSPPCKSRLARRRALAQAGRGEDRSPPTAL
Assay: Inhibition of recombinant MNK1
experimentalReadout: IC50

CCN1CCN(c2ccc(Nc3cc(N(C)C(=O)Nc4c(Cl)c(OC)cc(OC)c4Cl)ncn3)cc2)CC1.O=P(O)(O)O [INFIGRATINIB PHOSPHATE]
> 10 µM

----------
Biological target: Tyrosine-protein kinase JAK2 (Homo sapiens, UniProt O60674)
Sequence (O60674 whole entry): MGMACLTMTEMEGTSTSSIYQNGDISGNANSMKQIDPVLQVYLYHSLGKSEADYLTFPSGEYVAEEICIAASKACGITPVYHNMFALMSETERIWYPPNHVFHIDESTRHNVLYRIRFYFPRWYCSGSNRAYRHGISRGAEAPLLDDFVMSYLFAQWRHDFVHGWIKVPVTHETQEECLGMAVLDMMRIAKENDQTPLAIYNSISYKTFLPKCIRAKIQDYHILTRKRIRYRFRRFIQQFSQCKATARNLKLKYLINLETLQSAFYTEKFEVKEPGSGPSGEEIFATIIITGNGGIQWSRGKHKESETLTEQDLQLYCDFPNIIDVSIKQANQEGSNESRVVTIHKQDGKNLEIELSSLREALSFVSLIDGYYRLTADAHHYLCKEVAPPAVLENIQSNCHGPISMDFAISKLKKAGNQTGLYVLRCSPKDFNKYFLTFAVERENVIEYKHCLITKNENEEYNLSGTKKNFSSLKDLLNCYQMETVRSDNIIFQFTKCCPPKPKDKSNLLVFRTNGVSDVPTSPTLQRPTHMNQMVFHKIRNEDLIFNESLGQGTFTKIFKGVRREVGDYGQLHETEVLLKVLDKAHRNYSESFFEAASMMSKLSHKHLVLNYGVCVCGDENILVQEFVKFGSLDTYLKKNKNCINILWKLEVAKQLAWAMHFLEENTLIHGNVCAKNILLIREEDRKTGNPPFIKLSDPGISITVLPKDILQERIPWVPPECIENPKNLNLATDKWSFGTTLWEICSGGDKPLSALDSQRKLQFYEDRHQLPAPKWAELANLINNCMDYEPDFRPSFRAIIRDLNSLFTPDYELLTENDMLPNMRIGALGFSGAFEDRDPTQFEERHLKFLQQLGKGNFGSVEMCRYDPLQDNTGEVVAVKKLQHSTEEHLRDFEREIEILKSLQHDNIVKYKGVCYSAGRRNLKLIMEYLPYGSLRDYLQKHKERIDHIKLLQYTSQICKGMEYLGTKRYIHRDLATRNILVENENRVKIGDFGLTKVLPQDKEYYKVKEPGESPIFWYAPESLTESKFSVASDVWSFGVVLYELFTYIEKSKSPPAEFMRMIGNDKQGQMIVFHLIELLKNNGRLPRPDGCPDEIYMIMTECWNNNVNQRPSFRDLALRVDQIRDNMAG
Assay: Inhibition of recombinant JAK2
pIC50: −log10 of the molar value.
experimentalReadout: pIC50

CCN1CCN(c2ccc(Nc3cc(N(C)C(=O)Nc4c(Cl)c(OC)cc(OC)c4Cl)ncn3)cc2)CC1.O=P(O)(O)O [INFIGRATINIB PHOSPHATE]
< 5.00

----------
Molecular target: Protein kinase C theta type (Homo sapiens)
Sequence (Q04759 whole entry): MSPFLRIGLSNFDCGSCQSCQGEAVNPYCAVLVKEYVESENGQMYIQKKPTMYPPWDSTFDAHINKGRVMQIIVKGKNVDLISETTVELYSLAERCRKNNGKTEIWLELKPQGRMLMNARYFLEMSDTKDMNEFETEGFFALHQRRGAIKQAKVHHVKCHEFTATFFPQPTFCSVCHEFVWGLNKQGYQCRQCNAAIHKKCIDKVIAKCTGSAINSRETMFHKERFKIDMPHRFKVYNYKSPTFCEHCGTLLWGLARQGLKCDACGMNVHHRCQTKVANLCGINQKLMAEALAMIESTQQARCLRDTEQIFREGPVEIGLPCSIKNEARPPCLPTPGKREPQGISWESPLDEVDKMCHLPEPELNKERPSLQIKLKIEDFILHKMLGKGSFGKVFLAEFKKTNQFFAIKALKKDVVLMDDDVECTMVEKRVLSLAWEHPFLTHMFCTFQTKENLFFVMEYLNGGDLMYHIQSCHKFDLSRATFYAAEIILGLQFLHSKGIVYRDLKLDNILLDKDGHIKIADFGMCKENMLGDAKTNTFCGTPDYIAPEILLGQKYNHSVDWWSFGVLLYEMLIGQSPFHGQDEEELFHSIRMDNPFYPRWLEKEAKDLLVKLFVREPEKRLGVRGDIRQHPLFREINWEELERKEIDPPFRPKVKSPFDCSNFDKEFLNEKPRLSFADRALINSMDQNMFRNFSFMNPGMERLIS
Experiment: Inhibition of recombinant PKCtheta
experimentalReadout: IC50

CCN1CCN(c2ccc(Nc3cc(N(C)C(=O)Nc4c(Cl)c(OC)cc(OC)c4Cl)ncn3)cc2)CC1.O=P(O)(O)O [INFIGRATINIB PHOSPHATE]
> 10 µM

----------
Molecular target: Phosphatidylinositol 4,5-bisphosphate 3-kinase catalytic subunit alpha isoform (Homo sapiens, UniProt P42336)
Sequence (P42336 whole entry, canonical isoform): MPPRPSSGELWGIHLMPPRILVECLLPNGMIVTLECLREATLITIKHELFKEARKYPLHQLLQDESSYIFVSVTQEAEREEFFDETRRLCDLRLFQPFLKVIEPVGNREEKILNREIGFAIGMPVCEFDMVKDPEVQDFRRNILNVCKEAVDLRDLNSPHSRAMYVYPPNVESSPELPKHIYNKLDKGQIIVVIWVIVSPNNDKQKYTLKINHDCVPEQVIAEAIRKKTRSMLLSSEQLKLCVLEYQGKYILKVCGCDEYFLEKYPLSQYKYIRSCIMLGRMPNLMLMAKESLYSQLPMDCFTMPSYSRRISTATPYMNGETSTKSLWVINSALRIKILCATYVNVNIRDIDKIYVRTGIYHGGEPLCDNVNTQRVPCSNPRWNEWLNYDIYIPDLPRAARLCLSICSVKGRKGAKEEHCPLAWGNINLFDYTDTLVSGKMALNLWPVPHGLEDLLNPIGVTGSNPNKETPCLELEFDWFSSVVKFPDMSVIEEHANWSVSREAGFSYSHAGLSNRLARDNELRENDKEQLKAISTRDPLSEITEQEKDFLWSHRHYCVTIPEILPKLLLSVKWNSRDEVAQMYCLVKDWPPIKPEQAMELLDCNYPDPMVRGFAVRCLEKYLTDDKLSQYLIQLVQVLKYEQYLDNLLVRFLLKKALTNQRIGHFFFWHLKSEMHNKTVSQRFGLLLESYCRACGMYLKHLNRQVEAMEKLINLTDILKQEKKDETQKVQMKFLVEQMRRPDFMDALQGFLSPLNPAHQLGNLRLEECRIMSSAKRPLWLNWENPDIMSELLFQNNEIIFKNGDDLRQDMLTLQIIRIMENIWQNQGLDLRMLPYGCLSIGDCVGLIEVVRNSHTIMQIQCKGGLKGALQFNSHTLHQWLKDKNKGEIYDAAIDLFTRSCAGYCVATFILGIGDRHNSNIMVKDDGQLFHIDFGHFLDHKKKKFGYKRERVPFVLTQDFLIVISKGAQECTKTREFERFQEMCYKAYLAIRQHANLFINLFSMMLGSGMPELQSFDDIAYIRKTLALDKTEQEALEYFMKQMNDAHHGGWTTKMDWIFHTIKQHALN
Experiment: Inhibition of recombinant PI3Kalpha
pIC50: −log10 of the molar value.
experimentalReadout: pIC50

CCN1CCN(c2ccc(Nc3cc(N(C)C(=O)Nc4c(Cl)c(OC)cc(OC)c4Cl)ncn3)cc2)CC1.O=P(O)(O)O [INFIGRATINIB PHOSPHATE]
< 5.05

----------
Target: MAP kinase-interacting serine/threonine-protein kinase 2 (Homo sapiens)
Sequence (Q9HBH9 whole entry): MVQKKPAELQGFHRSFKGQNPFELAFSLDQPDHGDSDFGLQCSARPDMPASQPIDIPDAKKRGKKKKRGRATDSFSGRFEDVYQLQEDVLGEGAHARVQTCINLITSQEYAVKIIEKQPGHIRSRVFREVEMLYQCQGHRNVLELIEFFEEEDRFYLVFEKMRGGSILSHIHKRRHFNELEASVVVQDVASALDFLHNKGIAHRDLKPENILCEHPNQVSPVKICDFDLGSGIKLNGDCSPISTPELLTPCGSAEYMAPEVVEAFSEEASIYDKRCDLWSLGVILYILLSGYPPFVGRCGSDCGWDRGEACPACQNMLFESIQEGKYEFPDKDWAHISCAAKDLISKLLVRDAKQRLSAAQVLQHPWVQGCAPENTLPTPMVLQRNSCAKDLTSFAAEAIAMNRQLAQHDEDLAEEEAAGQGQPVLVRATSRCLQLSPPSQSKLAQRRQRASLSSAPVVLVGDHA
Experiment: Inhibition of recombinant MNK2
experimentalReadout: IC50

CCN1CCN(c2ccc(Nc3cc(N(C)C(=O)Nc4c(Cl)c(OC)cc(OC)c4Cl)ncn3)cc2)CC1.O=P(O)(O)O [INFIGRATINIB PHOSPHATE]
> 10 µM

----------
Molecular target: Mitogen-activated protein kinase 1 (Homo sapiens)
Sequence (P28482 whole entry): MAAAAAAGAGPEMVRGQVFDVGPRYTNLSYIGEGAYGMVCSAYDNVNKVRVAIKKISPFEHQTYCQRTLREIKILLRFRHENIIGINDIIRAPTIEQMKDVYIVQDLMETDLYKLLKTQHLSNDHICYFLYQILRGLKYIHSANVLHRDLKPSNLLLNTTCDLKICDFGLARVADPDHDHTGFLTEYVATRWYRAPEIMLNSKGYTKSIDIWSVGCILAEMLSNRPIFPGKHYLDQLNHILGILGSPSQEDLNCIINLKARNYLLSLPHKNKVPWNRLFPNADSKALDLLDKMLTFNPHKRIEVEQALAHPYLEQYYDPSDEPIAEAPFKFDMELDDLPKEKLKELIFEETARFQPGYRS
Experiment: Inhibition of recombinant ERK2
pIC50: −log10 of the molar value.
experimentalReadout: pIC50

CCN1CCN(c2ccc(Nc3cc(N(C)C(=O)Nc4c(Cl)c(OC)cc(OC)c4Cl)ncn3)cc2)CC1.O=P(O)(O)O [INFIGRATINIB PHOSPHATE]
< 5.00

----------
Target: UniProt:P41240
Sequence (P41240 whole entry): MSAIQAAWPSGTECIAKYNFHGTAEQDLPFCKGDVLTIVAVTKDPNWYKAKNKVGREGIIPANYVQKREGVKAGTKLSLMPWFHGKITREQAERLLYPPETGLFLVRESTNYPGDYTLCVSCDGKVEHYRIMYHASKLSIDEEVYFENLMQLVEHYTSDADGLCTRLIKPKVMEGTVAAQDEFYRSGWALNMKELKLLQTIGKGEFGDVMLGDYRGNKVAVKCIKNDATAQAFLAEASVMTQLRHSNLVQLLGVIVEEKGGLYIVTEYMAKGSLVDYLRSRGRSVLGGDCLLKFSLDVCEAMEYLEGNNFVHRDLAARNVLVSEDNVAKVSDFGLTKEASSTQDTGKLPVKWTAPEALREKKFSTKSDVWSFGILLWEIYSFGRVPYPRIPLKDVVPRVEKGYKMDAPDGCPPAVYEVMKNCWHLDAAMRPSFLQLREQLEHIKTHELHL
Experiment: Inhibition of recombinant CSK
pIC50: −log10 of the molar value.
experimentalReadout: pIC50

CCN1CCN(c2ccc(Nc3cc(N(C)C(=O)Nc4c(Cl)c(OC)cc(OC)c4Cl)ncn3)cc2)CC1.O=P(O)(O)O [INFIGRATINIB PHOSPHATE]
< 5.00
